B1: library; numbered along this chain (parent)
chain: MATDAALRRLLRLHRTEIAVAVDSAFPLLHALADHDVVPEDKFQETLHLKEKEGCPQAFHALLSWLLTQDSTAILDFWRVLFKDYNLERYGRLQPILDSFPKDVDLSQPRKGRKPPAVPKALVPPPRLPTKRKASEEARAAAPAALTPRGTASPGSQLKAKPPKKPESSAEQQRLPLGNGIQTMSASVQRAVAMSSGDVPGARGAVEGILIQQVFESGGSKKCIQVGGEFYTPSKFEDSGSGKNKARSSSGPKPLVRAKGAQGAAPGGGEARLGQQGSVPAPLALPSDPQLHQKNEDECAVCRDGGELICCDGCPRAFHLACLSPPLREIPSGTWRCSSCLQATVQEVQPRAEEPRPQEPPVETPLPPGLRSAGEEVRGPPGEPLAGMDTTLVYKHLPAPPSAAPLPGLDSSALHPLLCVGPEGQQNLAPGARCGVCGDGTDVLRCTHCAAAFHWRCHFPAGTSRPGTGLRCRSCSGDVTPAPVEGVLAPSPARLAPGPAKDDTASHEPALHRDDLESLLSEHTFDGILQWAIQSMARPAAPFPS

Variants of: B1
protocol-text: AIRE transcriptional activation functional score (insulin promoter-GFP; nonsense median 0, synonymous median 1) (normalised score); higher = higher AIRE activity (more reporter activation)
test-conditions: with insulin promoter-GFP reporter in HEK293
List of AIRE transcriptional activation functional score values.
endpoint-name: AIRE transcriptional activation functional score

>  <variant-annotation>
A193E

>  <recorded-value>
0.394

$$$$
>  <variant-annotation>
S185N

>  <recorded-value>
0.832

$$$$
>  <variant-annotation>
L81W

>  <recorded-value>
0.0861

$$$$
>  <variant-annotation>
R113C

>  <recorded-value>
1.3

$$$$
>  <variant-annotation>
N295S

>  <recorded-value>
0.92

$$$$
>  <variant-annotation>
L529N

>  <recorded-value>
-0.625

$$$$
>  <variant-annotation>
G218K

>  <recorded-value>
0.888

$$$$
>  <variant-annotation>
P101D

>  <recorded-value>
0.335

$$$$
>  <variant-annotation>
F215C

>  <recorded-value>
0.382

$$$$
>  <variant-annotation>
L106M

>  <recorded-value>
0.0877

$$$$
>  <variant-annotation>
H458S

>  <recorded-value>
0.164

$$$$
>  <variant-annotation>
S241K

>  <recorded-value>
0.301

$$$$
>  <variant-annotation>
E307M

>  <recorded-value>
0.227

$$$$
>  <variant-annotation>
P280S

>  <recorded-value>
1.1

$$$$
>  <variant-annotation>
G379E

>  <recorded-value>
1

$$$$
>  <variant-annotation>
T16K

>  <recorded-value>
-0.208

$$$$
>  <variant-annotation>
D105A

>  <recorded-value>
1.52

$$$$
>  <variant-annotation>
K83W

>  <recorded-value>
0.152

$$$$
>  <variant-annotation>
P544Y

>  <recorded-value>
1.65

$$$$
>  <variant-annotation>
G91M

>  <recorded-value>
1.02

$$$$
>  <variant-annotation>
E329K

>  <recorded-value>
0.00515

$$$$
>  <variant-annotation>
Q189V

>  <recorded-value>
-0.071

$$$$
>  <variant-annotation>
H319N

>  <recorded-value>
1.26

$$$$
>  <variant-annotation>
R351D

>  <recorded-value>
0.673

$$$$
